target.of.assay: human CB1 receptors (Homo sapiens (Human))
Sequence (P21554 whole entry): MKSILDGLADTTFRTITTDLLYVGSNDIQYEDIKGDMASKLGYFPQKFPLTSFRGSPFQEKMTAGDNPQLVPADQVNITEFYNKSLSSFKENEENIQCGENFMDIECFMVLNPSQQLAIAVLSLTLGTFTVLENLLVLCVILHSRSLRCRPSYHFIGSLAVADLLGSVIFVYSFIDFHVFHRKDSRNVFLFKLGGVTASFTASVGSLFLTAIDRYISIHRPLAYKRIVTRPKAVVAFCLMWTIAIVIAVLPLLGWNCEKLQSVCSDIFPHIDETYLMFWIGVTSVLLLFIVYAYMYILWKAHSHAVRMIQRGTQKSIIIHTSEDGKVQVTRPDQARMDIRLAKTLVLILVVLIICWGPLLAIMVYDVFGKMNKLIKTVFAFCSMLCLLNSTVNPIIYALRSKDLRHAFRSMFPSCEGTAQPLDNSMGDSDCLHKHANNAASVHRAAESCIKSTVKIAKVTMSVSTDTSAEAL
test.method.notes: cAMP assay, CHO cells expressing human CB1 receptors
Type: cell-based
condition.context: CHO cells expressing human CB1, cAMP; read-out: human CB1 EC50
// reported EC50 for each item listed
result.type: EC50

molecule="CN1CC(NC(=O)c2ccc(N3CC(F)(F)C3)c(OCC3CC3)n2)CC1=O (stereo not drawn)" target_of_assay="human CB1 receptors (Homo sapiens (Human))" result_type=EC50 recorded_result="> 10 µM"
molecule=CCC(CC)(NC(=O)c1ccc(C(F)(F)F)c(OCC2CC2)n1)C(=O)OC target_of_assay="human CB1 receptors (Homo sapiens (Human))" result_type=EC50 recorded_result="> 10 µM"
molecule=CC(C)(NC(=O)c1ccc(C(F)(F)F)c(OCC2CC2)n1)c1ncco1 target_of_assay="human CB1 receptors (Homo sapiens (Human))" result_type=EC50 recorded_result="> 10 µM"
molecule=CNC(=O)C(C)(C)NC(=O)c1ccc(C2CC2)c(-c2cccc(Cl)c2)n1 target_of_assay="human CB1 receptors (Homo sapiens (Human))" result_type=EC50 recorded_result="> 10 µM"
molecule=Cc1nc(C(C)(C)NC(=O)c2cccc(-c3ccc(Cl)c(F)c3)n2)no1 target_of_assay="human CB1 receptors (Homo sapiens (Human))" result_type=EC50 recorded_result="> 10 µM"
molecule=CNC(=O)[C@H](CC(C)(C)C)NC(=O)c1cccc(Cc2ccc(F)cc2)n1 target_of_assay="human CB1 receptors (Homo sapiens (Human))" result_type=EC50 recorded_result="1.87 µM"
molecule=CC(C)C[C@@H](CO)NC(=O)c1ccc(N2CCCC2)c(OCC2CC2)n1 target_of_assay="human CB1 receptors (Homo sapiens (Human))" result_type=EC50 recorded_result="> 10 µM"
molecule=Cc1nc(C(C)(C)NC(=O)c2ccc(Cl)c(OCC3CC3)n2)no1 target_of_assay="human CB1 receptors (Homo sapiens (Human))" result_type=EC50 recorded_result="> 10 µM"
molecule=Cc1nc(C(C)(C)NC(=O)c2ccc(C3CC3)c(OCC3CC3)n2)no1 target_of_assay="human CB1 receptors (Homo sapiens (Human))" result_type=EC50 recorded_result="1.06 µM"
molecule=CNC(=O)[C@@H](NC(=O)c1cccc(-c2cccc(F)c2)n1)C(C)(C)C target_of_assay="human CB1 receptors (Homo sapiens (Human))" result_type=EC50 recorded_result="0.361 µM"
molecule=CN(C)C(=O)[C@@H](NC(=O)c1ccc(C2CC2)c(OCC2CC2)n1)c1ccccc1 target_of_assay="human CB1 receptors (Homo sapiens (Human))" result_type=EC50 recorded_result="> 10 µM"
molecule=CC(C)C[C@@H](NC(=O)c1ccc(N2CC(F)(F)C2)c(OCC2CC2)n1)c1cccnn1 target_of_assay="human CB1 receptors (Homo sapiens (Human))" result_type=EC50 recorded_result="> 10 µM"
molecule=CC(C)C[C@H](NC(=O)c1ccc(Br)c(Oc2ccc(F)cc2)n1)C(N)=O target_of_assay="human CB1 receptors (Homo sapiens (Human))" result_type=EC50 recorded_result="> 10 µM"
molecule="Cc1nc(C(C)(C)NC(=O)c2ccc(C3CCCO3)c(OCC3CC3)n2)no1 (stereo not drawn)" target_of_assay="human CB1 receptors (Homo sapiens (Human))" result_type=EC50 recorded_result="> 10 µM"
molecule=CC(C)C[C@H](NC(=O)c1ccc(Cl)c(-c2cccc(Cl)c2)n1)C(N)=O target_of_assay="human CB1 receptors (Homo sapiens (Human))" result_type=EC50 recorded_result="> 10 µM"
molecule=Cc1nc([C@@](C)(NC(=O)c2ccc(C3CC3)c(S(=O)(=O)CC(C)C)n2)C2CC2)no1 target_of_assay="human CB1 receptors (Homo sapiens (Human))" result_type=EC50 recorded_result="> 10 µM"
molecule=CNC(=O)[C@@H](NC(=O)c1cccc(-c2cccc(OC)c2)n1)C(C)(C)C target_of_assay="human CB1 receptors (Homo sapiens (Human))" result_type=EC50 recorded_result="> 10 µM"
molecule=O=C(NC1CCCCC1)c1cccc(-c2cccc(Cl)c2)n1 target_of_assay="human CB1 receptors (Homo sapiens (Human))" result_type=EC50 recorded_result="> 10 µM"
molecule=CNC(=O)[C@@H](NC(=O)c1cccc(-c2cccc(Cl)c2)n1)C(C)(C)C target_of_assay="human CB1 receptors (Homo sapiens (Human))" result_type=EC50 recorded_result="1.54 µM"
molecule="COC(=O)C1CCCCC1NC(=O)c1cccc(C2CCCCC2)n1 (stereo not drawn)" target_of_assay="human CB1 receptors (Homo sapiens (Human))" result_type=EC50 recorded_result="> 10 µM"
molecule=CCC(CC)(NC(=O)c1ccc(N2CC(F)(F)C2)c(OCC2CC2)n1)C(=O)NC target_of_assay="human CB1 receptors (Homo sapiens (Human))" result_type=EC50 recorded_result="> 10 µM"
molecule="O=C(NC(c1ccccn1)C(F)(F)F)c1ccc(N2CC(F)(F)C2)c(OCC2CC2)n1 (stereo not drawn)" target_of_assay="human CB1 receptors (Homo sapiens (Human))" result_type=EC50 recorded_result="0.647 µM"
molecule=CSCC[C@H](NC(=O)c1ccc(N2CC(F)(F)C2)c(OCC2CC2)n1)C(N)=O target_of_assay="human CB1 receptors (Homo sapiens (Human))" result_type=EC50 recorded_result="> 10 µM"
molecule=CC(C)(NC(=O)c1cccc(-c2cccc(Cl)c2)n1)c1ncon1 target_of_assay="human CB1 receptors (Homo sapiens (Human))" result_type=EC50 recorded_result="> 10 µM"
